- method.description: chemical genetic growth profiling, strain panel (AID 1159580);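 note: tested at 20 µM; growth read once vehicle control cultures reached saturation at 30 °C; 1 = growth at the plate median or of vehicle wells; lower values mean less growth of the strain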
- condition.label: S. cerevisiae deletion strains, growth OD, locus YER111C, strain swi4, active compounds read low
Out of some 5,500 compounds screened, about 2,000 (36%) were called active. Roughly 18% stayed inconclusive and do not appear here. This is one part of the list.
quantity.measured: normalized growth
Number, no unit, nothing else.

[
  {
    "compound": "CCN1CCN(C(=O)NC(C(=O)N[C@@H]2C(=O)N3[C@@H]2SC(C)(C)[C@@H]3C(=O)O)c2ccccc2)C(=O)C1=O (stereo partly specified)",
    "measurement": 1
  },
  {
    "compound": "Cc1c(C)c2c(c(C)c1O)CCC(C)(CCCC(C)CCCC(C)CCCC(C)C)O2 (stereo unspecified)",
    "measurement": 0.985
  },
  {
    "compound": "NC1=NCCN1CC(=O)O",
    "measurement": 1.03
  },
  {
    "compound": "CC(C)c1ccc2c(c1)CCC1[C@](C)(CN)CCC[C@]21C (stereo partly specified)",
    "measurement": 1.03
  },
  {
    "compound": "CN(C)CCCN1c2ccccc2CCc2ccc(Cl)cc21",
    "measurement": 0.994
  }
]

Now examine the next entry.
Exercise: // normalized growth lookup, key: "O=C1NC(O)=NC1(c1ccccc1)c1ccccc1"
Solution: 1.02

* * *

- method.description: chemical genetic growth profiling, strain panel (AID 1159580)
- condition.label: S. cerevisiae deletion strains, growth OD, locus YFR010W, strain ubp6
Screen size: about 5,500 compounds; about 2,000 (36%) were called active. Not shown: some 18% with an inconclusive outcome. Cut-off read from the data, not from the text of the source: active = normalized growth mostly below about 0.91 (no sharp cut-off); inconclusive = no clear call, values can overlap the other calls; inactive = mostly above about 0.92. The list shows a part of the results.
Outcomes you can answer with include only these: active, inactive

See these solved cases before continuing.
[
  {
    "compound": "CC(=O)O[C@H]1CCC2(C)C3=C(CCC2C1(C)C)[C@@]1(C)CC[C@@H](C(C)CCC=C(C)C)[C@]1(C)CC3 (stereo not given in full)",
    "answer.label": "inactive"
  },
  {
    "compound": "CC(=O)O[C@H]1CC[C@@]2(C)C(C[C@@H](OC(C)=O)[C@@]3(C)C4=CC(=O)O[C@@H](c5ccoc5)[C@]4(C)CCC23)C1(C)C (stereo not given in full)",
    "answer.label": "inactive"
  },
  {
    "compound": "C=C1c2c(Cl)ccc(O)c2C(O)=C2C(=O)[C@]3(O)C(O)=C(C(N)=O)C(=O)[C@@H](N(C)C)[C@@H]3[C@@H](O)[C@H]12",
    "answer.label": "inactive"
  },
  {
    "compound": "CC(=O)Oc1ccc(O)cc1",
    "answer.label": "inactive"
  },
  {
    "compound": "NCC(N)C(=O)c1ccccc1 (stereo not given)",
    "answer.label": "inactive"
  }
]

Exercise: Given CC(=O)O[C@@H]1CC2C(C)(C)[C@H](O)C=C[C@]2(C)C2CC[C@]3(C)C(=CC(=O)O[C@H]3c3ccoc3)[C@@]21C (stereo not given in full) , state the outcome it received in this test.
Solution: inactive

Exercise: How about this compound: "NCC(=O)c1ccccc1"
Solution: inactive

Exercise: How about this compound: C/C=C\C1=C(C(=O)O)N2C(=O)C(NC(=O)C(N)c3ccc(O)cc3)C2SC1 (stereo not given)
Solution: inactive

Exercise: How about this compound: "CC(=O)Oc1cccc(O)c1"
Solution: inactive

Exercise: How about this compound: CC(=O)O[C@@H]1C=C[C@@]2(C)C(C[C@@H](OC(C)=O)[C@@]3(C)C4=CC(=O)O[C@@H](c5ccoc5)[C@]4(C)CCC23)C1(C)C (stereo not given in full)
Solution: inactive

Exercise: How about this compound: "NC(=O)NC(=O)Cc1ccccc1"
Solution: inactive

* * *

- method.description: chemical genetic growth profiling, strain panel (AID 1159580);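 note: tested at 20 µM; growth read once vehicle control cultures reached saturation at 30 °C; 1 = growth at the plate median or of vehicle wells; lower values mean less growth of the strain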
- condition.label: S. cerevisiae deletion strains, growth OD, locus YJL166W, strain qcr8, active compounds read low
Hit rate of the full screen: of about 5,500 compounds, about 2,000 (36%) were called active. About 18% were inconclusive and are not listed. The list shows a part of the results.
# TRUE = normalized growth below 1 (exclusive); FALSE = normalized growth at/above 1

Exercise: Please check: normalized growth for "O=C(OOC(=O)c1ccccc1)c1ccccc1" , strictly under 1 or not?
Solution: TRUE

* * *

List of normalized growth values.
- method.description: chemical genetic growth profiling, strain panel (AID 1159580);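 note: tested at 20 µM; growth read once vehicle control cultures reached saturation at 30 °C; 1 = growth at the plate median or of vehicle wells; lower values mean less growth of the strain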
- condition.label: S. cerevisiae deletion strains, growth OD, locus YBR279W, strain paf1, active compounds read low
Among all 5,500 compounds or so, about 2,000 (36%) were called active. Another 18% or so got no clear call; they are omitted. The list shows a part of the results.
Number, no unit, nothing else.

Field: example entries. Status: answers known.
[
  {
    "line.notation": "COc1cc(C(C)=O)cc(OC)c1O",
    "quantity.measured": "normalized growth",
    "measurement": 1.02
  },
  {
    "line.notation": "Cc1cc(=O)[nH]c(=S)[nH]1",
    "quantity.measured": "normalized growth",
    "measurement": 0.973
  },
  {
    "line.notation": "O=C(O)C1=CCCNC1",
    "quantity.measured": "normalized growth",
    "measurement": 0.988
  },
  {
    "line.notation": "N[C@@H](CCC(=O)N[C@@H](CS)C(=O)NCC(=O)O)C(=O)O",
    "quantity.measured": "normalized growth",
    "measurement": 1
  },
  {
    "line.notation": "CC(=O)c1cc(CC=C(C)C)c(O)c(CC=C(C)C)c1",
    "quantity.measured": "normalized growth",
    "measurement": 1.02
  },
  {
    "line.notation": "CCCc1cc(=O)[nH]c(=S)[nH]1",
    "quantity.measured": "normalized growth",
    "measurement": 0.988
  }
]

Exercise: // normalized growth lookup, key: "CC(=O)c1ccc(O)c(CC=C(C)C)c1"
Solution: 0.977

* * *

List of normalized growth values.
- method.description: chemical genetic growth profiling, strain panel (AID 1159580);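 note: tested at 20 µM; growth read once vehicle control cultures reached saturation at 30 °C; 1 = growth at the plate median or of vehicle wells; lower values mean less growth of the strain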
- condition.label: S. cerevisiae deletion strains, growth OD, locus YOL147C, strain pex11, active compounds read low
Screen size: about 5,500 compounds; about 2,000 (36%) were called active. Not shown: some 18% with an inconclusive outcome. Some of the results follow.
Number, no unit, nothing else.

[
  {
    "compound": "CC(=O)Oc1cccc(O)c1",
    "normalized growth": 1.01
  },
  {
    "compound": "CCCN(CCC)S(=O)(=O)c1ccc(C(=O)O)cc1",
    "normalized growth": 1
  },
  {
    "compound": "OC[C@H]1O[C@@H](O[C@@H]2[C@@H](CO)O[C@](O)(CO)[C@H]2O)[C@H](O)[C@@H](O)[C@H]1O",
    "normalized growth": 0.982
  },
  {
    "compound": "CCC(C)C(=O)OC1[C@@H]2CC3=C4CC(=O)O[C@@H](c5ccoc5)[C@]4(C)CCC3[C@@](C)(C2=O)[C@@H](CC(=O)OC)C1(C)C (stereo partly drawn)",
    "normalized growth": 1
  }
]

Exercise: // normalized growth lookup, key: CC(C)CCCC(C)C1CCC2C3CC[C@H]4C[C@@H](O)CC[C@]4(C)C3CC[C@]12C (stereo partly drawn)
Solution: 1

Exercise: How about this compound: "C[n+]1ccccc1/C=N/O"
Solution: 1

Exercise: How about this compound: CO[C@H]1CC(O[C@@H]2/C(C)=C/C[C@@H]3C[C@@H](C[C@]4(CC[C@H](C)[C@@H](C5CCCCC5)O4)O3)OC(=O)[C@@H]3C=C(C)/C(=N\O)[C@H]4OC/C(=C\C=C\[C@@H]2C)[C@]43O)O[C@@H](C)C1O (stereo partly drawn)
Solution: 1.01

Exercise: How about this compound: "O=C(O)c1cc(O)c2c(c1)[C@@H]([C@H]1c3cc(C(=O)O)cc(O)c3C(=O)c3c(O[C@H]4O[C@H](CO)[C@@H](O)[C@H](O)[C@H]4O)cccc31)c1cccc(O[C@H]3O[C@H](CO)[C@@H](O)[C@H](O)[C@H]3O)c1C2=O"
Solution: 1

Exercise: How about this compound: "Nc1ccc(S(=O)(=O)NC(=O)c2ccccc2)cc1"
Solution: 1.02

Exercise: How about this compound: "N=C(N)N"
Solution: 0.976

Exercise: How about this compound: CC(C)CCCC(C)C1CCC2C3=CC[C@H]4C[C@@H](O)CC[C@]4(C)C3CC[C@@]21C (stereo partly drawn)
Solution: 0.994

Exercise: How about this compound: CC(C)CCCC(C)[C@H]1CCC2C3CC=C4C[C@@H](O)CC[C@]4(C)C3CC[C@@]21C (stereo partly drawn)
Solution: 0.99

Exercise: How about this compound: "CC(=O)c1ccc(O)c(CC=C(C)C)c1"
Solution: 0.977

Exercise: How about this compound: "COc1ccc([C@@H]2CC(=O)c3c(O)cc(O[C@@H]4O[C@H](CO[C@H]5O[C@@H](C)[C@H](O)[C@@H](O)[C@H]5O)[C@@H](O)[C@H](O)[C@H]4O)cc3O2)cc1O"
Solution: 0.983

Exercise: How about this compound: "O=C(NCO)c1cccnc1"
Solution: 0.988

Exercise: How about this compound: "CS(=O)(=O)c1ccc([C@@H](O)[C@@H](CO)NC(=O)C(Cl)Cl)cc1"
Solution: 0.99

Exercise: How about this compound: "CC(=O)Oc1ccc(C(c2ccc(OC(C)=O)cc2)c2ccccn2)cc1"
Solution: 0.979

Exercise: How about this compound: COc1ccccc1OCC(O)CO (stereo not drawn)
Solution: 0.995
